Values compiled from ChEMBL document CHEMBL1177642.

Can you tell me MIC50 for the items I'm about to list?
- Tested on: Staphylococcus aureus
- experimental.details: Antimicrobial activity against methicillin-resistant Staphylococcus aureus ATCC 43300 after overnight incubation
- Type: functional
The response must be a number in mg/L with no trailing unit.

Give recorded MIC50. `C[C@H](NC(=O)[C@@H](CCCNC(=N)N)NC(=O)[C@@H](CCCCN)NC(=O)COc1ccc2ccccc2c1-c1c(O)ccc2ccccc12)C(=O)OCc1ccccc1.Cl.Cl` 7.8

# return recorded MIC50 for entry `C=CC[C@H](NC(=O)[C@@H](CCCNC(=N)N)NC(=O)[C@@H](CCCCN)NC(=O)COc1ccc2ccccc2c1-c1c(OCCCc2ccccc2)ccc2ccccc12)C(=O)OCc1ccccc1.Cl.Cl` 3.9

Complete the entry with MIC50 for `CC(C)C[C@H](NC(=O)[C@@H](CCCNC(=N)N)NC(=O)[C@@H](CCCCN)NC(=O)COc1ccc2ccccc2c1-c1c(OCCC2CC2)ccc2ccccc12)C(=O)OCc1ccccc1.Cl.Cl` 3.9

Supply reported MIC50 belonging to this compound: `COCCOc1ccc2ccccc2c1-c1c(OCC(=O)N[C@H](CCCCN)C(=O)N[C@H](CCCNC(=N)N)C(=O)N[C@@H](CC(C)C)C(=O)OCc2ccccc2)ccc2ccccc12.Cl.Cl` 3.9

// fetch MIC50 given entry `C=CC[C@H](NC(=O)[C@@H](CCCNC(=N)N)NC(=O)[C@@H](CCCCN)NC(=O)COc1ccc2ccccc2c1-c1c(OCc2ccccc2)ccc2ccccc12)C(=O)OCc1ccccc1.Cl.Cl` 3.9

Hello, please tell me recorded MIC50 for this one: `C=CC[C@H](NC(=O)[C@@H](CCCNC(=N)N)NC(=O)[C@@H](CCCCN)NC(=O)COc1ccc2ccccc2c1-c1c(OCC2CCC2)ccc2ccccc12)C(=O)OCc1ccccc1.Cl.Cl` 3.9

Write down MIC50 measured for item `C=CC[C@H](NC(=O)[C@@H](CCCNC(=N)N)NC(=O)[C@@H](CCCCN)NC(=O)COc1ccc2ccccc2c1-c1c(OCC(C)(C)C)ccc2ccccc12)C(=O)OCc1ccccc1.Cl.Cl` 3.9

Read the entry `C=CCOc1ccc2ccccc2c1-c1c(OCC(=O)OCC)ccc2ccccc12` and write its reported MIC50. 3.9

Provide only the value of recorded MIC50 for `CC(C)CCOc1ccc2ccccc2c1-c1c(OCC(=O)N[C@H](CCCCN)C(=O)N[C@H](CCCNC(=N)N)C(=O)N[C@@H](CC(C)C)C(=O)Oc2ccccc2)ccc2ccccc12.Cl.Cl` 3.9

// fetch MIC50 given entry `CN[C@H](CC(C)C)C(=O)N[C@H]1C(=O)N[C@@H](CC(N)=O)C(=O)N[C@H]2C(=O)N[C@H]3C(=O)N[C@H](C(=O)N[C@H](C(=O)O)c4cc(O)cc(O)c4-c4cc3ccc4O)[C@H](O)c3ccc(c(Cl)c3)Oc3cc2cc(c3O[C@@H]2O[C@H](CO)[C@@H](O)[C@H](O)[C@H]2O[C@H]2C[C@](C)(N)[C@H](O)[C@H](C)O2)Oc2ccc(cc2Cl)[C@H]1O` 1.95

Find the measured MIC50 of `CC(C)C[C@H](NC(=O)[C@@H](CCCNC(=N)N)NC(=O)[C@@H](CCCCN)NC(=O)COc1ccc2ccccc2c1-c1c(OCC#N)ccc2ccccc12)C(=O)OCc1ccccc1.Cl.Cl` and report it. 3.9

Consider the compound `C=CCOc1ccc2ccccc2c1-c1c(OCC(=O)N[C@H](CCCCN)C(=O)N[C@H](CCCNC(=N)N)C(=O)N[C@@H](CC=C)C(=O)OCc2ccccc2)ccc2ccccc12.Cl.Cl` . State its measured MIC50. 1.96

Name the recorded MIC50 of the compound listed here: `C=CC[C@H](NC(=O)[C@@H](CCCNC(=N)N)NC(=O)[C@@H](CCCCN)NC(=O)COc1ccc2ccccc2c1-c1c(OCC2CCCCC2)ccc2ccccc12)C(=O)OCc1ccccc1.Cl.Cl` 3.9
